- system_name: Thyroid hormone receptor beta (Homo sapiens) (UniProt P10828)
- Sequence (P10828 whole entry, looked up): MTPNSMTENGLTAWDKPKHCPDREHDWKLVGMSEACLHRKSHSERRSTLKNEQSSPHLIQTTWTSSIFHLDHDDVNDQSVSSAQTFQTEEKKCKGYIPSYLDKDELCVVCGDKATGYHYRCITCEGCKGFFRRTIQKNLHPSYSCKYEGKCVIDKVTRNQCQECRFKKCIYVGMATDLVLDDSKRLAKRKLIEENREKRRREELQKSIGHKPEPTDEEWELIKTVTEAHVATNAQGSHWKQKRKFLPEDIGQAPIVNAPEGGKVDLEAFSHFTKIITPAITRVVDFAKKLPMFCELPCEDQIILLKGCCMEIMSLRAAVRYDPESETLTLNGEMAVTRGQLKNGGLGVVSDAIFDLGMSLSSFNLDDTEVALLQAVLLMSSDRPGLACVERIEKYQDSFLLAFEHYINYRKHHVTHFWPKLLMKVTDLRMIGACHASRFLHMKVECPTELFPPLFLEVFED
- procedure_text: qHTS assay for small molecule antagonists of thyroid hormone receptor beta signaling (AID 588547);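 further: cells stimulated with 0.4 nM T3 agonist during compound exposure; series mostly up to about 77 µM; on the % scale 0 is the no-effect control and ±100 the full control effect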
- settings: TR-UAS-bla HEK293, beta-lactamase ratio, antagonist mode, 18 h
Results filed as inconclusive are left out.
reported_endpoint: activity change % (negative = inhibition) (%)
Field: numeric (%). Do not append units.

These recorded examples may help you get a feel for the data.
CS(=O)(=O)c1ccc(C(=O)C2C(=O)CCCC2=O)c([N+](=O)[O-])c1	9.38
O=C(O)CCCOc1ccc(Cl)cc1Cl	12.5

Task item: For O=C(O)c1cc(Oc2ccc(C(F)(F)F)cc2Cl)ccc1[N+](=O)[O-] , what is its reported activity change % (negative = inhibition)?
Reply: -21.5
